- targetOfAssay: Orexin/Hypocretin receptor type 1 (Homo sapiens)
- assayProcedure: antagonists of human orexin 1 receptor (OX1R) (AID 485270);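 note: 0% = agonist challenge alone and 100% = reference antagonist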
- conditionLabel: OX1R-expressing cells, FRET antagonist read-out; at 6.6 µM; stronger effect = higher value
In all, about 330,000 compounds went through this assay and about 5,800 (1.8%) were called active. The sample as a whole holds a higher share of actives than the screen did.
Could you please report measured inhibition for the items listed next?
Answers are plain numbers, in %.

Query COc1ccc(-c2noc(-c3cccc(OC)c3OC)n2)cc1OC yields inhibition of 45.8

GET /value?item= O=C(NCCN1C(=O)S/C(=C\c2cccnc2)C1=O)c1ccc(S(=O)(=O)N2CCCC2)cc1 &field=inhibition returns 41

The compound listed as COc1cccc(/C=C2\C=C(c3ccc(C)cc3)OC2=O)c1OC(C)=O has a reported inhibition of -6.31

Item: COc1cccc(NC(=O)C2c3cc(OC)c(OC)cc3C(=O)N(C)C2c2cccnc2)c1 (stereo unspecified) | inhibition: 10.3

Looking up CCOc1ccc(N2CC(C(=O)NCc3ccccn3)CC2=O)cc1 (stereo unspecified) , I found its inhibition recorded as 13.1

Take each entry in turn and give its inhibition.
1. CCCOc1ccc(/C(O)=C2/C(=O)C(=O)N(CCN(C)C)C2c2ccc(OC)c(OC)c2)cc1 (stereo unspecified)
2. O=C(Nc1nnc(-c2ccccc2)o1)c1cccc(S(=O)(=O)N2CCOCC2)c1
3. Cc1cccc(-c2noc(-c3ccc(F)cc3)n2)c1
4. CCCNC(=O)C1CC(=O)N(c2ccc(OCC(=O)Nc3cccc(C)c3C)cc2)C1 (stereo unspecified)
5. COc1ccc(/C(O)=C2/C(=O)C(=O)N(CCCN(C)C)C2c2ccccc2)cc1OC (stereo unspecified)
6. COc1cccc(/C=C/c2ccc3ccccc3n2)c1OC(C)=O
7. COc1ccc(-c2noc(CCCC(=O)NC3CCCC3)n2)cc1OC
8. Cc1ccc(S(=O)(=O)N(C)C)cc1NC(=O)C(C)OC(=O)c1ccc2ccccc2n1 (stereo unspecified)

1: 31.1; 2: 13.1; 3: 1.69; 4: 7.42; 5: 4.51; 6: 92; 7: 14.1; 8: 7.22

# per-item lookup of inhibition; items listed below
1. CCC1CCCCN1C(=S)NC(=O)c1ccco1 (stereo unspecified)
2. C=CC[C@@H](Cc1ccc(F)cc1)C(=O)OC[C@H]1CCCN1C(=O)[C@H](CC=C)CC(=O)N(CCO)Cc1ccccc1
3. CCOc1ccc(N2CC(C(=O)NCCN3C(=O)S/C(=C\c4cccnc4)C3=O)CC2=O)cc1 (stereo unspecified)

1. 0.14
2. 5.09
3. 55.7

Quick one: give me inhibition for each item below, same order please.
1. Cc1ccc(NC(=O)CSc2nn3c(=O)c(C)nnc3s2)cc1Cl
2. Cc1cc(C(=O)Nc2nnc(C3CC3)s2)c(C)s1
3. Cc1ccc(Br)c(NS(=O)(=O)c2cccc(C(=O)N3CCNC(=O)C3)c2)c1
4. O=C(COc1ccc([N+](=O)[O-])cc1Cl)Nc1ccc2[nH]c(=O)[nH]c2c1
5. Cc1ccc(C(=O)NNC(=O)CSc2nnc3ccccn23)cc1

[53.8, 7.15, 3.06, 9.15, 0.4]

---

- targetOfAssay: Orexin/Hypocretin receptor type 1 (Homo sapiens) (UniProt O43613)
- Sequence (O43613 whole entry, looked up): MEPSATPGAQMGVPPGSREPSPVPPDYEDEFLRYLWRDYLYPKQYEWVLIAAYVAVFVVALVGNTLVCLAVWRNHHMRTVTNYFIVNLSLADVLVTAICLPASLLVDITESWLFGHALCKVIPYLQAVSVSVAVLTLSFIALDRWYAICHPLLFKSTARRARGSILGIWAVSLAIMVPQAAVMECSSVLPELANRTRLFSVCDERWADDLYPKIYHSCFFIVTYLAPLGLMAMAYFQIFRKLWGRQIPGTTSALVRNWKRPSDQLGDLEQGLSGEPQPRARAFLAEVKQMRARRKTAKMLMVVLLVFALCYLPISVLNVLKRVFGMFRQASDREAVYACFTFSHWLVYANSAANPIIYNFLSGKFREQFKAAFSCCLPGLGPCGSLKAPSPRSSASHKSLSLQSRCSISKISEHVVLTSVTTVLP
- assayProcedure: antagonists of human orexin 1 receptor (OX1R) (AID 485270);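 note: 0% = agonist challenge alone and 100% = reference antagonist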
- conditionLabel: OX1R-expressing cells, FRET antagonist read-out; at 6.6 µM; stronger effect = higher value
Screen size: about 330,000 compounds; about 5,800 (1.8%) were called active. The list comes from a sample in which actives are over-represented; it also holds close analogues and randomly drawn compounds.
readoutKind: inhibition (%)
One number for each entry, in %.

Solved cases (5 shown):
Notebook: O=C(CCCN1C(=O)c2cccc3cccc(c23)C1=O)N1CCN(Cc2ccc3c(c2)OCO3)CC1 , inhibition read as 52.3

Reported inhibition for N/C(=N\OC(=O)CCc1ccccc1)c1ccc(Cl)cc1 was 18.5

Reported inhibition ( O=C(CN1C(=O)NC2(CCCC2)C1=O)Nc1cc(C(F)(F)F)ccc1N1CCOCC1 ) = 6.5

Data point: CC(C)CC1NC(=O)c2cc(Cl)ccc2-n2c1nc1ccccc1c2=O (stereo not given) ; inhibition = 4.11

// inhibition value for CN1CCN(CC(=O)Nc2cccc([N+](=O)[O-])c2)CC1 : 28

Could you tell me inhibition for each of these molecules? They are listed below.
1. O=C(COC(=O)c1cccnc1Cl)Nc1ccc(S(=O)(=O)N2CCOCC2)cc1
2. O=C1NC[C@@H](c2ccccc2)OC(=O)[C@H](Cc2ccc(F)cc2)CC/C=C/C[C@H]1CC(=O)N(CCO)Cc1ccccc1
3. O=C(CN1C(=O)c2cccc3cccc(c23)C1=O)N1CCCCC1
4. O=C(COC(=O)c1ccc(Br)o1)NC12CC3CC(CC(C3)C1)C2
5. COc1cc(Cl)ccc1OCc1cc(C(=O)N(C)CCc2c(C)n[nH]c2C)no1
6. Cc1[nH]n(C)c(=O)c1N=Nc1ccc(S(C)(=O)=O)cc1
7. Cc1ccc(NC(=O)CN(C)CC(=O)Nc2cccc(F)c2)cc1[N+](=O)[O-]
8. Cc1ccccc1-n1cc(CNC(=O)C2CCC(=O)N(C3CC3)C2)cn1 (stereo not given)

[7, 28.2, 79.7, 1.86, 71.9, 75.9, 30, 15.2]

---

- targetOfAssay: Orexin/Hypocretin receptor type 1 (Homo sapiens) (UniProt O43613)
- assayProcedure: antagonists of human orexin 1 receptor (OX1R) (AID 485270);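 note: 0% = agonist challenge alone and 100% = reference antagonist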
- conditionLabel: OX1R-expressing cells, FRET antagonist read-out; at 6.6 µM
In all, about 330,000 compounds went through this assay and about 5,800 (1.8%) were called active. No stated cut-off is given here; in the data, active means inhibition mostly above about 38% (no sharp cut-off); inactive means mostly below about 40%. The list comes from a sample in which actives are over-represented; it also holds close analogues and randomly drawn compounds.
Your reply should match one of these outcome classes. t (active), f (inactive)

Field: outcome | Entry: O=C(COc1ccc(F)cc1Br)NCC1COc2ccccc2O1 (stereo not given)
f

Test call for this compound, please: CC(=O)Nc1ccc(NC(=O)CSCc2cnn(-c3ccccc3)c2-n2cccc2)cc1
t

# lookup: test call for Cc1ccc(NC(=O)C2CC2)cc1S(=O)(=O)N1CCOCC1
f

GET /call?item= O=C(COC(=O)c1ccc([N+](=O)[O-])o1)NC12CC3CC(CC(C3)C1)C2 returns the recorded outcome of this test.
f

Kindly review the next compound as well.
How did this test come out for Cc1cc(C)cc(NC(=O)CSCc2cnn(-c3ccccc3)c2-n2cccc2)c1 ?
f

---

- targetOfAssay: Orexin/Hypocretin receptor type 1 (Homo sapiens)
- assayProcedure: antagonists of human orexin 1 receptor (OX1R) (AID 485270);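 note: 0% = agonist challenge alone and 100% = reference antagonist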
- conditionLabel: OX1R-expressing cells, FRET antagonist read-out; at 6.6 µM; stronger effect = higher value
The campaign covered roughly 330,000 compounds. About 5,800 (1.8%) were called active. For the sample, actives were picked, then their nearest neighbours and some compounds at random.
readoutKind: inhibition (%)
One number for each entry, in %.

Please look at the items below and tell me inhibition for each one, in order.
1. Cc1ccc(C(=O)c2c(NC(=O)c3ccccc3)sc(C)c2C)cc1
2. Cc1sc(NC(=O)c2ccc3ncsc3c2)c(C(N)=O)c1C

21.9
43.8

---

- targetOfAssay: Orexin/Hypocretin receptor type 1 (Homo sapiens) (UniProt O43613)
- assayProcedure: antagonists of human orexin 1 receptor (OX1R) (AID 485270);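 note: 0% = agonist challenge alone and 100% = reference antagonist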
- conditionLabel: OX1R-expressing cells, FRET antagonist read-out; at 6.6 µM
Hit rate of the full screen: of about 330,000 compounds, about 5,800 (1.8%) were called active. Rule as the data show it: active = inhibition mostly above about 38% (no sharp cut-off); inactive = mostly below about 40%. This is one part of a sample in which actives are shown more often than they occur.
Answer with one of the outcomes given here: active, inactive

Observe how each entry below is paired with its result.
// outcome(item) with item = CN=C1C=C/C(=N/N=c2\ccn(O)cc2C)C=C1C
active

Would you mind telling me which call this test gave Cc1ccc2c(c1)c1ncn(Cc3ccc(F)cc3)c(=O)c1n2C ?
inactive

Please share the test call associated with Cc1ccc2c(c1)c1ncn(CCC3=CCCCC3)c(=O)c1n2C .
inactive

Short answer needed: outcome of this test for O=C(Nc1cc(S(=O)(=O)Nc2ccc(Cl)cc2)ccc1O)c1ccc(F)cc1F ?
inactive

Test call, this molecule: COc1ccc(C(=O)Nc2cc(S(=O)(=O)N3CCCC3)ccc2Cl)cc1
inactive

***
Recorded test call requested for Cc1ccc2c(c1)c1ncnc(N3CCc4ccccc4C3)c1n2C
active

---

- targetOfAssay: Orexin/Hypocretin receptor type 1 (Homo sapiens) (UniProt O43613)
- assayProcedure: antagonists of human orexin 1 receptor (OX1R) (AID 485270);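 note: 0% = agonist challenge alone and 100% = reference antagonist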
- conditionLabel: OX1R-expressing cells, FRET antagonist read-out; at 6.6 µM; stronger effect = higher value
Screen size: about 330,000 compounds; about 5,800 (1.8%) were called active. The full list was thinned out, with actives kept by preference.
readoutKind: inhibition (%)
Give bare numbers, in %.

Before answering, review these 8 worked examples.
The compound identified as Cc1c(NC(=O)C(C)OC(=O)c2ccccc2O)c(=O)n(-c2ccccc2)n1C (stereo unspecified) registered its inhibition at 5.32

Record COc1ccc(NS(=O)(=O)c2ccc(C(=O)Nc3c(C)n(C)n(-c4ccccc4)c3=O)cc2)cc1 , field inhibition: 8.89

Just so you know, measured inhibition for O=C(CC1CCCCC1)NCc1ccccc1 came out at 7.66

Measured inhibition of Cn1c(N)c(C(=O)COC(=O)c2cnc(Cl)c(Cl)c2)c(=O)n(C)c1=O : 6.46

So, N#Cc1nc(-c2cccc3ccccc23)oc1N ? Its inhibition was 71.4

# inhibition of O=C(CN1C(=O)NC(Cc2ccccc2)(Cc2ccccc2)C1=O)NCC1CCCCC1 = 42.4

Reported inhibition for COc1ccc(-c2nc3cnccn3c2NC2CCCCC2)cc1-c1cccc(Cl)c1 was 14.3

The reported inhibition of the compound Cc1cc(NC(=O)CN2C(=O)NC(CC(C)C)C2=O)no1 (stereo unspecified) was 4.3

Look up inhibition for the entries below, preserving their order.
1. CC(C)n1cnc2c(NCc3ccccc3)cc(OCC3CCN(C)CC3)cc21
2. CCC(C)c1ccc(NC(=O)COC(=O)C2CCCC2)cc1 (stereo unspecified)
3. O=C(COC(=O)CSc1ccccc1)Nc1ccc(F)cc1F
4. Nc1ncnc2c1ncn2[C@@H]1O[C@H](CNCc2cccn2-c2nccs2)[C@@H](O)[C@H]1O
5. C[n+]1ccccc1C1CCCC/C1=N\Nc1ccc([N+](=O)[O-])cc1[N+](=O)[O-] (stereo unspecified)

[19.4, 5.25, 13.6, 5.52, 93.3]

Batch request: inhibition for each of the following compounds.
1. O=C(Nc1ccc(N2CCOCC2)cc1)c1cccc(S(=O)(=O)N2CCOCC2)c1
2. Cn1c(N)c(C(=O)COC(=O)c2cccc(S(=O)(=O)N3CCOCC3)c2)c(=O)n(C)c1=O
3. COc1ccc(S(=O)(=O)N2CCN(c3cnccn3)CC2)cc1

1.87
13.1
16.4

# batch: return inhibition for each of the 5 compounds below
1. O=[N+]([O-])c1ccc(N/N=C2/CCCCC2c2ccccn2)c([N+](=O)[O-])c1 (stereo unspecified)
2. CCOc1cc(/C=N/NC(=O)c2cccc(S(=O)(=O)N3CCOCC3)c2)ccc1OCC(=O)N(C)C
3. COc1ccc(Nc2oc(-c3ccccc3Cl)nc2C#N)cc1
4. NCCN1CCN2C(=O)CN(C(=O)c3ccccc3)CC12 (stereo unspecified)
5. COc1ccc(C(=O)C(C)OC(=O)c2cccc(S(=O)(=O)Nc3c(C)n(C)n(-c4ccccc4)c3=O)c2)cc1 (stereo unspecified)

[49.2, 10, 29.4, 6.95, 41.2]
